- Experiment Description: Solubility
- Assay type: physicochemical
- Reported Conditions: aqueous buffer and 50% alcohol, organic solvent or mixture; aqueous buffer, pH 7, and 50% aqueous alcohol
Endpoint: solubility (µg/mL)
Your answer should be a plain number; it is taken to be in µg/mL.

// O=C(O)C=Cc1ccccc1O[C@@H]1O[C@H](C(=O)O)[C@@H](O)[C@H](O)[C@H]1O [CouGN] : solubility value = 5000

----------
- Experiment Description: Solubility
- Type: physicochemical
- Reported Conditions: organic solvent or mixture; 50% aqueous methanol containing 25% acetic acid
Endpoint: solubility (µg/mL)
Your answer should be a plain number; it is taken to be in µg/mL.

// NC(=O)[C@H]1O[C@@H](n2cnc(NCc3ccccc3)c3ncnc2-3)[C@H](O)[C@@H](O)[C@@H]1O [BA3GNamide] : solubility value = 2400
